Tested on: DU-145
Assay: NCI tumour cell line growth inhibition, 48 h
Active and inactive are the calls of the source. Rule as the data show it: active = GI50 up to about 1.1 µM and inactive = higher.
Classes used: T (active), F (inactive)

{"columns": ["molecule", "label value"],
 "data": [
  ["O=C(NNC(=S)NCc1ccccc1)C12CC3CC(CC(C3)C1)C2", "F"],
  ["N#CC(C#N)=CNC(N)=S", "F"],
  ["COC(=O)C1CCC(=O)N1CN(C(C)=O)c1cc(OC)ccc1OC (stereo not drawn)", "F"],
  ["Cc1ccc(N(C=O)c2c([N+](=O)[O-])cc([N+](=O)[O-])c3c2=[N+]([O-])CN=3)cc1", "F"],
  ["CCCCCCCCCCCCCCCC(=O)OCC(COP(=O)(O)OCCNC(=O)CCSSc1ccccn1)OC(=O)CCCCCCCCCCCCCCC (stereo not drawn)", "F"],
  ["Cn1c(COC(=O)Nc2ccccc2)c(COC(=O)Nc2ccccc2)c2ccc3cc(Cl)c(Cl)cc3c21", "F"],
  ["Cc1ccc(NC(c2ccccc2)P(=O)(c2ccccc2)c2ccccc2)cc1 (stereo not drawn)", "F"],
  ["CCn1nc(-c2ccccc2)c2c1N(C)c1ccccc1-n1c(-c3ccccc3)nnc1-2", "F"],
  ["CCc1ccc(/C=C\\c2cc(OC)c(OC)c(OC)c2)cc1", "T"],
  ["CC(C)O/N=C/c1cc(NC(=S)OC(C)C)ccc1Cl", "F"],
  ["CC(C)(C)NC(NC(C)(C)C)=C(C(Cl)=C(Cl)Cl)[N+](=O)[O-]", "F"],
  ["O=C1OCCC[C@H]2O[C@@H](COCc3ccccc3)C[C@@H]12", "F"],
  ["CCOC(=O)/C(C#N)=C/c1ccnc2ccccc12", "F"],
  ["c1ccc(CSP234N5CCN2CCN3CCN4CC5)c(CSP234N5CCN2CCN3CCN4CC5)c1", "F"],
  ["CO[C@]12CC(=O)C3(C(C[C@H]4CC5CC[C@H]6C[C@@H](OC(C)=O)CC[C@]6(OC(C)=O)C5C[C@@]43C)C1)C1C[C@H]3[C@@H]4CC[C@H]5C[C@@H](OC(C)=O)CC[C@]5(OC(C)=O)[C@H]4CC[C@]3(C)C12 (stereo partly drawn)", "F"],
  ["O=C1CCC(Cc2ccc(Cl)cc2Cl)C(=O)N1 (stereo not drawn)", "F"],
  ["COc1ccc(C2=Nc3c(nc(OC)[nH]c3=O)NC(c3ccccc3)C2)cc1 (stereo not drawn)", "F"],
  ["COc1cc(/C=N/n2c(-c3ccccc3)nn(C(C)=O)c2=O)cc(OC)c1OC", "F"],
  ["CN1CCc2c3n(c4cc(Br)ccc24)[C@H](O)CCCC31 (stereo partly drawn)", "F"],
  ["Cn1c2ccccc2n2c3ncccc3c(=O)c(C#N)c12", "F"],
  ["OCC1OC(n2nc(-c3ccccc3)nc2-c2cnccn2)C(O)C1O (stereo not drawn)", "F"],
  ["CO/C(=N/N1CC1C(F)(F)F)c1ccncc1 (stereo not drawn)", "F"],
  ["Cc1ccsc1C(=O)C(CC(=O)c1cccs1)c1ccsc1 (stereo not drawn)", "F"]
]}
